# Measured On: GCN2 catalytic domain (Homo sapiens)
# Sequence (Q9P2K8 584-1019, species assumed): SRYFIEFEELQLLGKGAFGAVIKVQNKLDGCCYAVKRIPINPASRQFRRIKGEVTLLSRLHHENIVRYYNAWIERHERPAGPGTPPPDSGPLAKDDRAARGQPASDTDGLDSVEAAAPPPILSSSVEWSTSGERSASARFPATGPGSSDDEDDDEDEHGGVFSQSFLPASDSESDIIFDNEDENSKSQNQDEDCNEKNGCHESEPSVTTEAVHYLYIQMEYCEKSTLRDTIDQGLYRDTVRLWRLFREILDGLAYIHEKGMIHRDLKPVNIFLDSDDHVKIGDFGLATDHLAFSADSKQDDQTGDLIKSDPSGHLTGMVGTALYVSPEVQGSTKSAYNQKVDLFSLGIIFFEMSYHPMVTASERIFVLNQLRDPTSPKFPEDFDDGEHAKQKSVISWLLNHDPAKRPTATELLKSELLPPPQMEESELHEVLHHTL
Quantity Measured: IC50 (µM)
Report the figure in µM without appending any unit label.

Query: # return IC50 for Cc1cc(NC(=O)[C@H](O)c2cc(F)cc(F)c2)ccc1-c1cnc(N)c(C(=O)NC(C)C)c1 [LY4] , test system: GCN2 catalytic domain (Homo sapiens)
Response: 18.1

----------
# Measured On: Recombinant human EIF2AK3 (PERK) catalytic domain (Homo sapiens, UniProt Q9NZJ5)
# Construct: catalytic domain (amino acids 536-1116; Cat # PV5107); purchased Invitrogen (Carlsbad, Calif.) PV5107
# Sequence (Q9NZJ5 536-1116): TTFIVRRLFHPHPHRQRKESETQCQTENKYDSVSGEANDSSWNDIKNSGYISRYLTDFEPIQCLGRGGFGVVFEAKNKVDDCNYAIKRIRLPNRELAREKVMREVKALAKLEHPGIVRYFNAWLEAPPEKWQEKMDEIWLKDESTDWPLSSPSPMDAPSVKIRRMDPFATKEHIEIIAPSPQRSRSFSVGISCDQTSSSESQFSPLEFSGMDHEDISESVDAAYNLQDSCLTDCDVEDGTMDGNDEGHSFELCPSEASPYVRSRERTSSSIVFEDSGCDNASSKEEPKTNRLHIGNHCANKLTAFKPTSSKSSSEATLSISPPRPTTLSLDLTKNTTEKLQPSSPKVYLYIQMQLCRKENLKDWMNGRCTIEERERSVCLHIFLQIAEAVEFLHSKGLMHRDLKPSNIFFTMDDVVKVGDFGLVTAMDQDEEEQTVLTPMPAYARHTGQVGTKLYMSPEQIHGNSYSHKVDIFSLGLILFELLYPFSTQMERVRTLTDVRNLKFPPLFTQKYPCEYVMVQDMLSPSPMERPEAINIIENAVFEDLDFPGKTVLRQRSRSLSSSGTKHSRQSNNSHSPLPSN
# Assay Procedure: PERK biochemical TR-FRET kinase assay using purified eIF2a as substrate
# Study Conditions: read-out: PERK Enzyme IC50
Quantity Measured: IC50 (nM)
Lab book: enter the figure in nM, no units written.

Example cases with answers are listed next.
| Compound | Val |
| --- | --- |
| Cc1cc(NC(=O)[C@H](O)c2cc(F)cc(F)c2)ccc1-c1cnc(N)c(C(=O)NC(C)C)c1 | 2 |
| Cc1cccc(CC(=O)N2CCc3c2ccc(-c2cn(C)c4ncnc(N)c24)c3F)n1 [GSK2656157, reference compound] | 8 |
| Cc1cc(NC(=O)[C@H](O)c2cccc(F)c2)ccc1-c1cn(C)c2ncnc(N)c12 | 2 |

Query: Tell me IC50 reported for "CNC(=O)c1nc(-c2ccc(NC(=O)[C@H](O)c3cc(F)cc(F)c3)cc2C)cnc1N"
Response: 2
